- target or system: hMCHR (MCH receptor) (Homo sapiens)
- Construct: (or internally produced); host or cells: CHO (Chinese hamster ovary) cells, membrane preparation
- assay details: MCH Assay PCOP Protocol ([125I]-MCH SPA binding to hMCHR-CHO membranes);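 as to Activity (Ki range): A 0.4–50 nM B 51–500 nM C 501–2500 nM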
- condition summary: [125I]-MCH binding to hMCHR-CHO membranes; class symbols for ranges of Ki; read-out: Activity (Ki range)
pKi: −log10 of the molar value.
Below, each entry is listed with its recorded pKi.

Example cases with answers are listed next.
[
  {
    "compound": "O=C(NCC(CCNCCc1c[nH]c2ccccc12)c1cccc(Cl)c1)Nc1cc(C(F)(F)F)cc(C(F)(F)F)c1 (stereo not shown) [Example 333]",
    "target or system": "hMCHR (MCH receptor) (Homo sapiens)",
    "pKi": "6.30 to 7.29"
  },
  {
    "compound": "CCN1CCCC1CNCCC(CNC(=O)c1cc(C(F)(F)F)cc(C(F)(F)F)c1)c1ccc(Cl)c(Cl)c1 (stereo not shown) [Example 407]",
    "target or system": "hMCHR (MCH receptor) (Homo sapiens)",
    "pKi": "5.60 to 6.30"
  },
  {
    "compound": "CCNC(=O)NC1CCN(CCC(CNC(=O)Nc2cc(Cl)cc(Cl)c2)c2ccc(Cl)c(Cl)c2)CC1 (stereo not shown) [Example 323]",
    "target or system": "hMCHR (MCH receptor) (Homo sapiens)",
    "pKi": "5.60 to 6.30"
  },
  {
    "compound": "COc1ccc(-c2ccc(C(CCNCCCN(C)C)CNC(=O)Nc3cc(Cl)cc(Cl)c3)cc2)cc1 (stereo not shown) [Example 240]",
    "target or system": "hMCHR (MCH receptor) (Homo sapiens)",
    "pKi": "6.30 to 7.29"
  },
  {
    "compound": "O=C(NCC(CCN1CCC(NC(=O)c2ccno2)CC1)c1ccc(Cl)c(Cl)c1)Nc1cc(Cl)cc(Cl)c1 (stereo not shown) [Example 217]",
    "target or system": "hMCHR (MCH receptor) (Homo sapiens)",
    "pKi": "5.60 to 6.30"
  },
  {
    "compound": "CN1CCCC1CCNCCC(CNC(=O)Nc1ccc(Cl)c(Cl)c1)c1ccc(Cl)c(Cl)c1 (stereo not shown) [Example 298]",
    "target or system": "hMCHR (MCH receptor) (Homo sapiens)",
    "pKi": "5.60 to 6.30"
  }
]

Lookup: Tell me the measured pKi of Cc1ccc(C(CCN2CCCCC2)CNC(=O)Nc2cc(Cl)cc(Cl)c2)cc1 (stereo not shown) [Example 350] , please.
Found: 6.30 to 7.29

Lookup: Recorded pKi of O=C(NCC(CCNC1CCC1)c1ccc(Cl)cc1)Nc1cc(Cl)cc(Cl)c1 (stereo not shown) [Example 273] , please.
Found: 6.30 to 7.29

Lookup: Which measured pKi value corresponds to CN(C)CCCNCCC(CNC(=O)Nc1cc(Cl)cc(Cl)c1)c1ccc(-c2cccc([N+](=O)[O-])c2)cc1 (stereo not shown) [Example 220] ?
Found: 7.30 to 9.40

Lookup: Query (compound): COc1ccccc1-c1ccc(C(CCNCCCN(C)C)CNC(=O)Nc2cc(Cl)cc(Cl)c2)cc1 (stereo not shown) [Example 252] ; field requested: pKi
Found: 6.30 to 7.29

Lookup: Record request: pKi value, item Cn1cnc(CCNCCC(CNC(=O)Nc2cccc(C(F)(F)F)c2)c2ccc(Cl)c(Cl)c2)c1 (stereo not shown) [Example 303]
Found: 5.60 to 6.30

Lookup: Look at this compound and give its reported pKi. O=C(NCC(CCN1CCCC1)c1ccc(Cl)c(Cl)c1)Nc1ccc(Cl)c(Cl)c1 (stereo not shown) [Example 287]
Found: 6.30 to 7.29

Lookup: // pKi lookup, key: O=C(NCC(CCNC1CCCCC1)c1ccc(Cl)cc1)Nc1cc(Cl)cc(Cl)c1 (stereo not shown) [Example 266]
Found: 6.30 to 7.29

Lookup: May I ask what pKi has been recorded for Cc1ccc(C(CCNC2CCC2)CNC(=O)Nc2cc(Cl)cc(Cl)c2)cc1 (stereo not shown) [Example 272] ?
Found: 6.30 to 7.29

Lookup: Please give the measured pKi for this compound: O=C(NCc1cc(C(F)(F)F)cc(C(F)(F)F)c1)C(CCNC1CCC1)c1ccc(Cl)c(Cl)c1 (stereo not shown) [Example 379]
Found: 5.60 to 6.30

Lookup: Fill blank: measured pKi of the compound CN(C)CCCNCCC(CNC(=O)Nc1cc(C(F)(F)F)cc(C(F)(F)F)c1)c1ccc(Cl)cc1 (stereo not shown) [Example 337] is ____.
Found: 5.60 to 6.30

Lookup: Entry O=C(NCC(CCN1CCNCC1)c1ccc(Cl)c(Cl)c1)Nc1cc(C(F)(F)F)cc(C(F)(F)F)c1 (stereo not shown) [Example 371] has what pKi?
Found: 5.60 to 6.30

Lookup: Give its pKi value. Item: Cc1ccc(C(CCN2CCCCC2)CNC(=O)Nc2cc(Cl)ccc2Cl)cc1 (stereo not shown) [Example 353]
Found: 6.30 to 7.29

---

- target or system: hMCHR (MCH receptor) (Homo sapiens)
- Construct: (or internally produced); host or cells: CHO (Chinese hamster ovary) cells, membrane preparation
- assay details: MCH Assay PCOP Protocol ([125I]-MCH SPA binding to hMCHR-CHO membranes);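 as to Activity (Ki range): A 0.4–50 nM B 51–500 nM C 501–2500 nM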
- condition summary: [125I]-MCH binding to hMCHR-CHO membranes; class symbols for ranges of Ki; read-out: Activity (Ki range)
Catalogue of Ki values

Example results:
[
  {
    "molecule": "O=C(NCC(CCN1CCN(c2ccc(O)cc2)CC1)c1ccc(Cl)c(Cl)c1)c1cc(C(F)(F)F)cc(C(F)(F)F)c1 (stereo not shown) [Example 402]",
    "target or system": "hMCHR (MCH receptor) (Homo sapiens)",
    "Ki": "501 to 2500 nM"
  },
  {
    "molecule": "Cc1ccc(C(CCN2CCCCC2)CNC(=O)Nc2ccc(Cl)c(Cl)c2)cc1 (stereo not shown) [Example 352]",
    "target or system": "hMCHR (MCH receptor) (Homo sapiens)",
    "Ki": "51 to 500 nM"
  },
  {
    "molecule": "O=C(NCC(CCNC1CCC1)c1ccc(Cl)c(Cl)c1)Nc1cccc(C(F)(F)F)c1 (stereo not shown) [Example 283]",
    "target or system": "hMCHR (MCH receptor) (Homo sapiens)",
    "Ki": "51 to 500 nM"
  },
  {
    "molecule": "O=C(NCC(CCNC1CCC1)c1ccc(Cl)c(Cl)c1)c1cc(C(F)(F)F)cc(C(F)(F)F)c1 (stereo not shown) [Example 398]",
    "target or system": "hMCHR (MCH receptor) (Homo sapiens)",
    "Ki": "501 to 2500 nM"
  },
  {
    "molecule": "Cc1ccc(C(CCNC2CCCCC2)CNC(=O)Nc2cc(C(F)(F)F)cc(C(F)(F)F)c2)cc1 (stereo not shown) [Example 270]",
    "target or system": "hMCHR (MCH receptor) (Homo sapiens)",
    "Ki": "51 to 500 nM"
  },
  {
    "molecule": "CN(CCC(CNC(=O)c1cc(C(F)(F)F)cc(C(F)(F)F)c1)c1ccc(Cl)c(Cl)c1)C1CCCCC1 (stereo not shown) [Example 408]",
    "target or system": "hMCHR (MCH receptor) (Homo sapiens)",
    "Ki": "501 to 2500 nM"
  }
]

Now, please, on to the next molecule.
Lookup: # value lookup — system hMCHR (MCH receptor) (Homo sapiens), readout Ki, item Cn1cnc(CCNCCC(CNC(=O)Nc2cc(C(F)(F)F)cc(C(F)(F)F)c2)c2ccc(Cl)c(Cl)c2)c1 (stereo not shown) [Example 367]
Found: 501 to 2500 nM

---

- target or system: hMCHR (MCH receptor) (Homo sapiens, UniProt Q99705)
- Construct: (or internally produced); host or cells: CHO (Chinese hamster ovary) cells, membrane preparation
- Sequence (Q99705 whole entry): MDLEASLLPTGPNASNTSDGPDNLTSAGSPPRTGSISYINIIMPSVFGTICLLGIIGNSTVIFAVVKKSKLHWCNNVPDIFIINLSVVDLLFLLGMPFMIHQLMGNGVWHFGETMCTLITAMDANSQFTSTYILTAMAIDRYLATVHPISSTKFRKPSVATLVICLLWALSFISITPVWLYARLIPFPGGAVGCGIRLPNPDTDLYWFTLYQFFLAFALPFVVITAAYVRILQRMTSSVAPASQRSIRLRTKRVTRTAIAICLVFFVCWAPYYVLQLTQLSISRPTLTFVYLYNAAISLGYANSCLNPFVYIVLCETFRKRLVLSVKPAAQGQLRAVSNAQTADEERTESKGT
- assay details: MCH Assay PCOP Protocol ([125I]-MCH SPA binding to hMCHR-CHO membranes)
- condition summary: [125I]-MCH SPA binding, hMCHR-CHO membranes; Ki class ranges; read-out: Activity (range of Ki)
measured quantity: Ki

Below, each entry is followed by its recorded Ki result.
[
  {
    "molecule": "COCC1CCCN1CCC(CNC(=O)Nc1cc(C(F)(F)F)cc(C(F)(F)F)c1)c1ccc(Cl)c(Cl)c1 (stereo not shown)",
    "measured quantity": "Ki",
    "measured result": "501 to 2500 nM"
  },
  {
    "molecule": "COc1ccc2[nH]cc(CCNCCC(CNC(=O)Nc3cc(C(F)(F)F)cc(C(F)(F)F)c3)c3ccc(Cl)c(Cl)c3)c2c1 (stereo not shown)",
    "measured quantity": "Ki",
    "measured result": "501 to 2500 nM"
  },
  {
    "molecule": "O=C(NCC(CCN1CCC(CN2CCCCC2)CC1)c1ccc(Cl)c(Cl)c1)Nc1cc(C(F)(F)F)cc(C(F)(F)F)c1 (stereo not shown)",
    "measured quantity": "Ki",
    "measured result": "501 to 2500 nM"
  }
]

Now, please, on to the next molecule.
Lookup: Entry O=C(NCC(CCN1CCCCC1)c1ccc(Cl)c(Cl)c1)Nc1cc(C(F)(F)F)cc(C(F)(F)F)c1 (stereo not shown) : reported Ki = ?
Found: 51 to 500 nM

Values from patent US7034056B2
